biological target: T1, IL-1β (UniProt P01584 117-269); assay: Biacore, Fab periplasmic extract; -1 = no binding by the table's footnote
T1 construct: Antigen of XPA23
observable: binding result

{"columns": ["binder", "observable", "result"],
 "data": [
  ["XPA23 heavy chain G102P (Fab, V domains shown, Fab, periplasmic extract; also called C5A G102P) VH: EVQLLESGGGLVQPGGSLRLSCAASGFTFSKYFMFWVRQAPGKGLEWVSVISPSGGMTRYADSVKGRFTISRDNSKNTLYLQMNSLRAEDTAVYYCARVGYPGNSDYWGQGTLVTVSS VL: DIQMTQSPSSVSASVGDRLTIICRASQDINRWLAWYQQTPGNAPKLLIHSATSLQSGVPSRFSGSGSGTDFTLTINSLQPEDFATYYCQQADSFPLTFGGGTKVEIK", "binding result", "no binding"],
  ["XPA23 heavy chain R59A (Fab, V domains shown, Fab, periplasmic extract; also called C5A R59A) VH: EVQLLESGGGLVQPGGSLRLSCAASGFTFSKYFMFWVRQAPGKGLEWVSVISPSGGMTAYADSVKGRFTISRDNSKNTLYLQMNSLRAEDTAVYYCARVGYGGNSDYWGQGTLVTVSS VL: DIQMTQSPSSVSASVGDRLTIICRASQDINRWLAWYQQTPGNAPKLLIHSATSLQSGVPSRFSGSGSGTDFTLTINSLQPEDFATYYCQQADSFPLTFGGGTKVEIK", "binding result", "no binding"],
  ["XPA23 heavy chain D106I (Fab, V domains shown, Fab, periplasmic extract; also called C5A D106I) VH: EVQLLESGGGLVQPGGSLRLSCAASGFTFSKYFMFWVRQAPGKGLEWVSVISPSGGMTRYADSVKGRFTISRDNSKNTLYLQMNSLRAEDTAVYYCARVGYGGNSIYWGQGTLVTVSS VL: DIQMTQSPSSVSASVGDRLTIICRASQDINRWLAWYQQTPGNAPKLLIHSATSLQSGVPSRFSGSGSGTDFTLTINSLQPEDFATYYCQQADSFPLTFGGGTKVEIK", "binding result", "no binding"]
]}
